# assay name: Dissociation constant (pKa), GLpKa method, Sirius T3
# Assay type: physicochemical
# recorded conditions: MDM co-solvent solution (ISA Water/MeOH/ACN/p-Dioxane), 43% MDM solution, column 2; read-out: pKa (third value)
quantity name: pKa
Lab note: record the figure alone, no unit after it.

Data request, read-out pKa, for `Cc1ccc2c(Nc3cccc(Cl)c3F)nccc2c1NC(=O)c1csc2c(N)ncnc12`
10.4

* * *

# assay name: Solubility of bis-hydrochloride Form I by HPLC test and observation test
# Assay type: physicochemical
# recorded conditions: aqueous buffer, thermodynamic from solid, pH 5.0 buffer, read-out: Solubility
quantity name: solubility (µg/mL)
Enter your answer as a number in µg/mL; do not include the unit.

Quick check: solubility of `Cc1ccc2c(Nc3cccc(Cl)c3F)nccc2c1NC(=O)c1csc2c(N)ncnc12` ?
0.09

* * *

# assay name: Partition / distribution coefficient octanol-water (Sirius T3)
# Type: physicochemical
# recorded conditions: octanol/water, pH 3
quantity name: logD
Keep the answer to the number alone.

Find the recorded logD belonging to Cc1ccc2c(Nc3cccc(Cl)c3F)nccc2c1NC(=O)c1csc2c(N)ncnc12 [Example 3] and report it.
2.64

* * *

# assay name: Dissociation constant (pKa), GLpKa method, Sirius T3
# Assay type: physicochemical
# recorded conditions: MDM co-solvent solution (ISA Water/MeOH/ACN/p-Dioxane), 43% MDM solution, column 3; read-out: pKa (first value)
quantity name: pKa
The reply should be a number, written without any unit.

# query: pKa of entry `Cc1ccc2c(Nc3cccc(Cl)c3F)nccc2c1NC(=O)c1csc2c(N)ncnc12`
3.84

* * *

# assay name: Solubility of bis-hydrochloride Form I by HPLC test and observation test
# Format: physicochemical
# recorded conditions: organic solvent or mixture, thermodynamic from solid, Dichloromethane, read-out: Solubility
# Experimental: Solubility was measured by HPLC according to KP, USP and EP general chapters. […] The results of solubility were same between HPLC test and observation test.
quantity name: solubility (µg/mL)
Report only the number, with the unit µg/mL understood.

So what's the measured solubility for this one? Cc1ccc2c(Nc3cccc(Cl)c3F)nccc2c1NC(=O)c1csc2c(N)ncnc12 [Example 3]
2.7

* * *

# assay name: Dissociation constant (pKa), GLpKa method, Sirius T3
# Assay type: physicochemical
# recorded conditions: MDM co-solvent solution (ISA Water/MeOH/ACN/p-Dioxane), 43% MDM solution, column 3; read-out: pKa (third value)
# Method: Based on these pKa values, Formula (I) is believed to be weakly basic compound. The dissociation, pKa, was measured with a T3 (Sirius Analytical Instrument Ltd., UK). About 1 mg of Formula (I) bis-hydrochloride was transferred to a GLpKa beaker, dissolved with 43% to 53% MDM solution (ISA Water/MeOH/ACN/p-Dioxane=40/20/20/20, Sirius), adjusted to pH 1.8 with 0.5 N HCl, and titrated up to pH 12.2 with 0.5 N KOH. The pKa as an aqueous solution was calculated by extrapolation.
quantity name: pKa
The response must contain the number and no unit.

What measured pKa goes with `Cc1ccc2c(Nc3cccc(Cl)c3F)nccc2c1NC(=O)c1csc2c(N)ncnc12` ?
10.4

* * *

# assay name: Solubility of bis-hydrochloride Form I by HPLC test and observation test
# Format: physicochemical
# recorded conditions: aqueous buffer, thermodynamic from solid, pH 7.0 buffer, read-out: Solubility
quantity name: solubility (µg/mL)
// return numeric value only (unit: µg/mL, not printed)

Please look up its solubility: `Cc1ccc2c(Nc3cccc(Cl)c3F)nccc2c1NC(=O)c1csc2c(N)ncnc12`
0.06
